IC50 for assorted compounds
experimental.target: PI 3-kinase beta (Homo sapiens, UniProt P42338)
Sequence (P42338 whole entry): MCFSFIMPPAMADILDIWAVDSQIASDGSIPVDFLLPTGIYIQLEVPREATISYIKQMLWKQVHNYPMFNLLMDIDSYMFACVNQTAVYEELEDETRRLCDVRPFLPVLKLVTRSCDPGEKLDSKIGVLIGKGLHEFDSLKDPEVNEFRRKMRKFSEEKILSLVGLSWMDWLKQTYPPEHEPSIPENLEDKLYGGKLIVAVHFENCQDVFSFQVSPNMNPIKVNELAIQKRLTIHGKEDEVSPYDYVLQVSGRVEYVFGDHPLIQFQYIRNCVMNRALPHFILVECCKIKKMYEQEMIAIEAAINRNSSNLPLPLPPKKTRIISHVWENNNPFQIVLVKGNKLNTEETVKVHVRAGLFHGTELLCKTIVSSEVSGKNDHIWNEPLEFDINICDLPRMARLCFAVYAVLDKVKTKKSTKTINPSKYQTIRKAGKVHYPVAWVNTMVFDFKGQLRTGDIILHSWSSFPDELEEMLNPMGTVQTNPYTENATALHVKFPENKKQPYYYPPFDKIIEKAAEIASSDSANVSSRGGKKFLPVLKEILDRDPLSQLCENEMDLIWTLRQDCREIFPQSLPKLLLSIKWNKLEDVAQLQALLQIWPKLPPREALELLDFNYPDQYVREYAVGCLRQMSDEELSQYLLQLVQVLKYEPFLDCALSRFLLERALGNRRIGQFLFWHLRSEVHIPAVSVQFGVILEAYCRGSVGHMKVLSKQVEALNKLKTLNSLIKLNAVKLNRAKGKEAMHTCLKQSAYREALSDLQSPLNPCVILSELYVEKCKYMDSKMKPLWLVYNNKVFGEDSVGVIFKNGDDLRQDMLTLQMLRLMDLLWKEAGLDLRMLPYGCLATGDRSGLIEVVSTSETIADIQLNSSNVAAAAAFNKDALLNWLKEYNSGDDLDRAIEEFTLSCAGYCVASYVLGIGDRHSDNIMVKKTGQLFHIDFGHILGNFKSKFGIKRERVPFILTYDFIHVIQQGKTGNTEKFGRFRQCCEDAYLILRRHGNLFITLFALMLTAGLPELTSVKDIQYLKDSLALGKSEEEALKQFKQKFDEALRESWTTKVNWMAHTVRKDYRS
Sequence (Q63787 whole entry partner): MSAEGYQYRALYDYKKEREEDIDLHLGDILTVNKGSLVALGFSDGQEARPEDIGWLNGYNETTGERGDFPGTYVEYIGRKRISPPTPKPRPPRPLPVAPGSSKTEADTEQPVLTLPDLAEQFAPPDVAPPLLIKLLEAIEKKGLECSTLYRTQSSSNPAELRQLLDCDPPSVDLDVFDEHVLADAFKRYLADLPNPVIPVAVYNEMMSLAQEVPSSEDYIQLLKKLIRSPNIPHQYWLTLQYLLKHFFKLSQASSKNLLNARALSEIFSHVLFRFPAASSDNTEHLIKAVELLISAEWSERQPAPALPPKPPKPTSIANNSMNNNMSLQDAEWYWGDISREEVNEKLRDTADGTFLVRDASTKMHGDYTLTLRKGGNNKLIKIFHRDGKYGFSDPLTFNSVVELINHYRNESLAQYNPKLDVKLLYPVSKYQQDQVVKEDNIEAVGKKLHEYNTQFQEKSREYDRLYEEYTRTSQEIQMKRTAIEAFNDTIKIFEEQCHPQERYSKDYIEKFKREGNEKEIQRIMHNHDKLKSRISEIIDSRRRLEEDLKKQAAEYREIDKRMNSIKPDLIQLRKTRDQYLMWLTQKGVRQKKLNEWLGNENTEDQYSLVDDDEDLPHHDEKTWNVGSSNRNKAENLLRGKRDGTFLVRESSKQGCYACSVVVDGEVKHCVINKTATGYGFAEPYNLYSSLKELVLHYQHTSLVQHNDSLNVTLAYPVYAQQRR
assay.overview: Cellular assay I1, p-Akt (S473) in Rat-1 cells, Surefire format
Assay type: cell-based
condition.parameters: non-asterisked data: version I1 (Surefire format), Rat-1 cells; read-out: Assay I PI3Kβ IC50
Structures can show the parent of a compound that is named as a salt.

Some solved entries appear below for comparison.
[[record]]
compound = "Cc1ccc(S(=O)(=O)NCC2(C)CCCO2)cc1-c1cnc(N)c(-c2cn(C)nc2C)n1 (stereo not shown)"
parameter_measured = "IC50"
result = "1550 nM"

[[record]]
compound = "Cc1cc(-c2nc(-c3cc(S(=O)(=O)NC4CCC(C)(O)CC4)ccc3C)cnc2N)ccn1 (stereo not shown)"
parameter_measured = "IC50"
result = "> 10000 nM"

[[record]]
compound = "Cc1ccc(S(=O)(=O)NCCC(C)(C)O)cc1-c1cnc(N)c(-c2cnn(Cc3ccccn3)c2)n1"
parameter_measured = "IC50"
result = "2870 nM"


Enter recorded IC50 with PI 3-kinase beta (Homo sapiens, UniProt P42338) for CCN1CCC[C@@H]1CNS(=O)(=O)c1ccc(C)c(-c2cnc(N)c(-c3cn(C)nc3C)n2)c1 [Example 27, hydrochloride] here.
> 10000 nM

Using PI 3-kinase beta (Homo sapiens, UniProt P42338) as the test system, report measured IC50 of Cc1ccc(S(=O)(=O)NCC(C)(C)O)cc1-c1cnc(N)c(-c2cnn(CCN(C)C)c2)n1 .
> 10000 nM

State IC50 (PI 3-kinase beta (Homo sapiens, UniProt P42338)) of Cc1ccc(S(=O)(=O)NC2CC3(CC(O)C3)C2)cc1-c1cnc(N)c(-n2cncn2)n1 (single isomer, unassigned) [Example 70a] .
2640 nM

Return reported IC50 for target or system PI 3-kinase beta (Homo sapiens, UniProt P42338), item Cc1ccc(S(=O)(=O)NCCC(C)(C)O)cc1-c1cnc(N)c(-c2ccc(N3CCCCC3)nc2)n1 .
8490 nM

---

experimental.target: PI 3-kinase alpha (Homo sapiens)
Sequence (P42336 whole entry): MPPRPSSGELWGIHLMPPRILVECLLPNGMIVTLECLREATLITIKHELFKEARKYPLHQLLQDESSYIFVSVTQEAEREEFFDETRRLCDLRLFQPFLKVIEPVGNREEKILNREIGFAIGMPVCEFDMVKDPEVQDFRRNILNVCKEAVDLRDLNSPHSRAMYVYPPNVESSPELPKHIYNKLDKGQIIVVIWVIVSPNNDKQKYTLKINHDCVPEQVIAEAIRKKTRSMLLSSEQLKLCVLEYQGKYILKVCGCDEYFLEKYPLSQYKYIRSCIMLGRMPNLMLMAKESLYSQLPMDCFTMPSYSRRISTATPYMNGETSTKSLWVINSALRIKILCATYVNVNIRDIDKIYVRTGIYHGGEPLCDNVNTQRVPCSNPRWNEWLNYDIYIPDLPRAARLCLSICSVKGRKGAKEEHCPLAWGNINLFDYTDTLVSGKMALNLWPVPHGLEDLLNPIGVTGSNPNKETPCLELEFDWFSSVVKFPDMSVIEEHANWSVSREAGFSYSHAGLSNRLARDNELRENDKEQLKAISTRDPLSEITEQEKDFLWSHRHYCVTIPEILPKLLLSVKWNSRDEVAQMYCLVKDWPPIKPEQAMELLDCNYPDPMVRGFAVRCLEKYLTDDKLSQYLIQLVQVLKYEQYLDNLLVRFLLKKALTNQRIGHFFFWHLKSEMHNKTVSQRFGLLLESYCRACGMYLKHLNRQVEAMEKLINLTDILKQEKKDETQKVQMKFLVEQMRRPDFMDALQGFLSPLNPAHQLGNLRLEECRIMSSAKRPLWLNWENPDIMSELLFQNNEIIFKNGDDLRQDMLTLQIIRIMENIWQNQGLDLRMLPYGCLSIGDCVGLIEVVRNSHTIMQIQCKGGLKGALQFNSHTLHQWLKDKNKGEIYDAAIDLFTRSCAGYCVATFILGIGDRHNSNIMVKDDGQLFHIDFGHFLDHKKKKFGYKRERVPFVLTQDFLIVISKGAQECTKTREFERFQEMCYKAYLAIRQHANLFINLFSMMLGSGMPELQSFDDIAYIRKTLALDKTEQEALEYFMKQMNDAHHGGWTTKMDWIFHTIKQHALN
Sequence (Q63787 whole entry partner): as the sequence (Q63787 whole entry partner) above
assay.overview: Cellular assay H1, p-Akt (S473) in Rat-1 cells, Surefire format
Assay type: cell-based
condition.parameters: non-asterisked data: version H1 (Surefire format), Rat-1 cells; read-out: Assay H PI3Kα IC50
parameter.measured: pIC50
Reminder that pIC50 is minus the log10 of a molar concentration.

Give reported pIC50 value for Cc1ccc(S(=O)(=O)N[C@H]2CC[C@H](O)CC2)cc1-c1cnc(N)c(-c2ccncc2)n1
5.59

---

experimental.target: PI 3-kinase delta (Homo sapiens)
Sequence (O00329 whole entry): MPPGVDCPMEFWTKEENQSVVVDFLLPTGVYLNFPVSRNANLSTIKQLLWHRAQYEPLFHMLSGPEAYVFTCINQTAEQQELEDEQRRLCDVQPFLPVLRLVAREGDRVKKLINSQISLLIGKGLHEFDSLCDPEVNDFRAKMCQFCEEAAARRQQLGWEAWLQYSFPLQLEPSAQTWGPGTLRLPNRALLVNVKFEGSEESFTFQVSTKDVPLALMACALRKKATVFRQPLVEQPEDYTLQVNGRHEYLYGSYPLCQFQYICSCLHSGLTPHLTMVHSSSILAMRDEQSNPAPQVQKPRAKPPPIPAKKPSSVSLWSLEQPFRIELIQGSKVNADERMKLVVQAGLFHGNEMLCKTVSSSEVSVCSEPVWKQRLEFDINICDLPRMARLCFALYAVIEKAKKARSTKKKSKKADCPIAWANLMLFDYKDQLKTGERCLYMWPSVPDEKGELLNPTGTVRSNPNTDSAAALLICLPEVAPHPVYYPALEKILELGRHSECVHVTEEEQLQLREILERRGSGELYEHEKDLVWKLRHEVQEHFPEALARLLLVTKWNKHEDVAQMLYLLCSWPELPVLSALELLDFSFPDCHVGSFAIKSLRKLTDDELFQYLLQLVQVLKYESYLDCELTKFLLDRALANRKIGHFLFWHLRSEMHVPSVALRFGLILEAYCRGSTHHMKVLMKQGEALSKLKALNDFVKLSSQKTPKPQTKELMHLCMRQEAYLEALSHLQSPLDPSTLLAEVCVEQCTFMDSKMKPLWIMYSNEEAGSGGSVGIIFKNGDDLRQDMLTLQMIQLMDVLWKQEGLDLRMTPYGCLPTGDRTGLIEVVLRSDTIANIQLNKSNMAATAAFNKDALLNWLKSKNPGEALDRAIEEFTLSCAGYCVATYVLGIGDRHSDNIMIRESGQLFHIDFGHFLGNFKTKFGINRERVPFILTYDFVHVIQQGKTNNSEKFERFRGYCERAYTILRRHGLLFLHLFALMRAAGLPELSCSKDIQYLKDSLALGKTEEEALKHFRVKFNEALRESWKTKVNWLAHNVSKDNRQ
Sequence (P27986 461-568 partner): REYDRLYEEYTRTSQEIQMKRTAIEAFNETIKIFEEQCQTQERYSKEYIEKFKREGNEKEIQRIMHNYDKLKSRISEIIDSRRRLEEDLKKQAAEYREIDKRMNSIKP
assay.overview: TR-FRET Adapta assay, assay F
condition.parameters: read-out: Assay F PI3Kδ IC50
parameter.measured: IC50 (nM)
Write down the numeric answer in nM and omit the unit.

Guide cases for IC50, answers given:
[[record]]
record_smiles = "Cc1ccc(S(=O)(=O)NC[C@@H]2COCCN2)cc1-c1cnc(N)c(-c2cn(C)nc2C)n1"
recorded_number = 300

[[record]]
record_smiles = "CCn1cc(-c2nc(-c3cc(S(=O)(=O)NCC(C)(C)O)ccc3C)cnc2N)nn1"
recorded_number = 700

[[record]]
record_smiles = "Cc1cnn(-c2nc(-c3cc(S(=O)(=O)N[C@H]4CC[C@H](O)CC4)ccc3C)cnc2N)c1"
recorded_number = 60


Item Cc1ccc(S(=O)(=O)NC2CCC2)cc1-c1cnc(N)c(-n2cncn2)n1 : provide IC50
1100
